Tested on: H9c2 cardiomyocytes, 2-deoxyglucose stress, ATP luminescence, 2 h
procedure.text: H9c2 cell survival under 2-deoxyglucose stress – uHTS hits, dose response (AID 588780)
Calls of active or inactive are those of the source.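 How the source made its calls: active means compounds whose fitted half-maximal concentration in the cell-protection dose series is at or below a set limit; inactive means the rest.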
Outcome codes: active, inactive

1) O=C(CSc1nnc(-c2cccnc2)n1Cc1ccco1)c1ccccc1 inactive
2) COC(=O)Cn1c(=NC(=O)c2cc(-c3cccs3)nc3ccccc23)sc2cc(S(N)(=O)=O)ccc21 active
3) Cc1cccc(OCCn2nc(C(=O)O)c3ccccc3c2=O)c1 inactive
4) CCOc1ccc(C(=O)COC(=O)Cn2[nH]c(=O)c3ccccc3c2=O)cc1 inactive
5) O=C(/C=C/c1ccc(Cl)c([N+](=O)[O-])c1)Nc1cccnc1 inactive

----------
# Lookup of reported IC50 keyed by entry
Test system: H9c2 cardiomyocytes, 2-deoxyglucose stress, ATP luminescence, 2 h
procedure.text: H9c2 cell survival under 2-deoxyglucose stress – uHTS hits, dose response (AID 588780)
Activity calls are given as the source filed them.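 Rule for the calls: active = compounds whose fitted half-maximal concentration in the cell-protection dose series is at or below a set limit; inactive = the rest.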

compound	IC50
COc1cc(/C=C(\C#N)C(=O)Nc2ccccc2)ccc1OCCN1CCOCC1	28.4 µM
Cc1cc(C(=O)N/N=C/c2cc(Br)ccc2OC(=O)c2ccccc2Cl)n[nH]1	> 79 µM (inactive)
O=C(CCn1c(=O)oc2ccccc21)N(Cc1ccccc1)c1ccccc1	> 79 µM (inactive)
Cc1ccc(NC(=O)CCCc2nc3ccccc3c(=O)[nH]2)c(Cl)c1	40 µM (inactive)
CCOc1ccc(NC(=O)c2cc3c(C)nc4ccccc4c3o2)cc1	17.1 µM
c1ccc(N2CCOCC2)c(Nc2nc3ccccc3n3cnnc23)c1	23.4 µM
C/C(=N\NC(=O)c1cccnc1)c1ccc(OC2OCCOC2Oc2ccc(/C(C)=N/NC(=O)c3cccnc3)cc2)cc1 (stereo unspecified)	13.1 µM
COC(=O)Oc1ccc(/C=C/C(=O)OC(C)C)cc1OC(=O)OC	63.1 µM (inactive)
Cc1ccc(C)c(NC(=O)C(Sc2nc3ccccc3c(=O)n2CC(C)C)c2ccccc2)c1 (stereo unspecified)	> 79 µM (inactive)
O=C(CSc1nc2ccccc2c(=O)[nH]1)N1CCCCC1	> 79 µM (inactive)
COc1cccc(NC(=O)c2oc3ccc(S(=O)(=O)N4CCOCC4)cc3c2C)c1	> 79 µM (inactive)
CSc1nc2ccc(S(=O)(=O)Nc3c(C)n(C)n(-c4ccccc4)c3=O)cc2s1	> 79 µM (inactive)
O=c1[nH]c2cccnc2c2ccsc12	> 79 µM (inactive)
CS(=O)(=O)N(Cc1ccc(C(=O)NCCSc2ccccn2)cc1)c1ccccc1	> 79 µM (inactive)
Cc1nc(N2CCN(c3ccccn3)CC2)c2c(C)c(C(=O)Nc3ccc(F)cc3)sc2n1	> 79 µM (inactive)
CCOC(=O)C1CCN(c2cc3c(cc2NC(=O)c2ccccc2Cl)n(C)c(=O)n3C)CC1	11.7 µM
Cn1c2ccc(F)cc2c2nnc(NN)nc21	> 79 µM (inactive)
O=C(CCc1nc2ccccc2c(=O)[nH]1)NNC(=O)c1ccc(Cl)cc1	> 79 µM (inactive)
CC(C)C1Nc2ccc(C(=O)N3CCN(c4ccccn4)CC3)cc2NC1=O (stereo unspecified)	> 79 µM (inactive)
COc1cc(/C=N/NC(=O)c2ccccc2O)ccc1OCC(=O)Nc1ccccc1	> 79 µM (inactive)
CC1Nc2ncnc(N3CCN(c4ccccc4)CC3)c2N(Cc2ccc(Br)cc2)C1=O (stereo unspecified)	> 79 µM (inactive)
